- Test system: M19-MEL
- test.summary: NCI tumour cell line growth inhibition, 48 h
The source made the active and inactive calls. Cut-off read from the data, not from the text of the source: active = GI50 up to about 1.1 µM and inactive = higher.
Known GI50 of a selection of compounds

Example entries begin here.
• CCOC(=N)CC(=O)c1ccccc1 = > 100 µM (inactive)
• N/N=C(\C(=O)Nc1c(Cl)cc([N+](=O)[O-])cc1Cl)C(c1cnc2ccc([N+](=O)[O-])cc2n1)[N+](=O)[O-] (centres undefined) = > 100 µM (inactive)
• Cn1nc(-c2cccc(-c3nn(C)/c(=N\CCO)s3)n2)s/c1=N/CCO = > 100 µM (inactive)
• COc1cc(C2C(C(=O)O)=C(C)Oc3cc4c(cc32)OCO4)cc(OC)c1OC (centres undefined) = 30.8 µM (inactive)
• C[Si](C)(C)/C(I)=C/CO = 20.8 µM (inactive)

Q. Fill in GI50 for record COC(=O)C(C(=O)C(=O)NC1=C(Cl)C(=O)c2ccccc2C1=O)c1csc(-n2nc(-c3ccccc3)cc2-c2ccccc2)n1 (centres undefined)
A. > 100 µM (inactive)

Q. Fill in GI50 for record "COc1ccc(/C=C2/C(=O)N(C(=O)c3ccc(Cl)cc3)N=C2C)cc1OC"
A. > 100 µM (inactive)

Q. Fill in GI50 for record "CC(C)c1cc2c(O)c(c1)Cc1cc(C(C)C)cc(c1O)Cc1cc(C(C)C)cc(c1O)Cc1cc(C(C)C)cc(c1O)C2"
A. > 100 µM (inactive)

Q. Fill in GI50 for record "COc1cc2cnc3c4cc(OC)c(OC(C)C)cc4ccc3c2cc1OC"
A. > 100 µM (inactive)

---

- System: ACHN
- test.summary: NCI tumour cell line growth inhibition, 48 h
Calls of active or inactive are those of the source. Cut-off read from the data, not from the text of the source: active = GI50 up to about 1.1 µM and inactive = higher.
Answer with one of the outcomes given here: active, inactive

- CCCCCCCCCCCCCCCCNc1nc(=O)n(C2CC(O)C(COP(=O)(O)OC3CC(n4cc(F)c(=O)[nH]c4=O)OC3CO)O2)cc1F (centres undefined): active
- N=C1OC(CN2CCN(c3ccccc3)CC2)CN1C(=O)Nc1ccccc1 (centres undefined): inactive
- C=CCCC(=O)N1CCC(C(=O)OCC)C1=O (centres undefined): inactive
- CCOC(=O)C(C)(NC(=O)c1ccc(NCc2ccc3nc(NC(=O)c4ccccc4)nc(NC(=O)c4ccccc4)c3c2)cc1)C(=O)OCC: inactive

Q. I'd appreciate the recorded outcome for "COc1cc(NS(C)(=O)=O)ccc1Nc1ccnc2ccc3[nH]ccc3c12" from this test.
A. inactive

---

A short record of GI50 observed with HCT-15 follows.

- COC1OC(COCc2ccc(Cl)cc2)C(OCc2ccc(Cl)cc2)C1O (centres undefined): 16 µM
- O=C(OCc1ccccc1)OOC(=O)OCc1ccccc1: > 100 µM
- Cc1cc(=O)nc(S(=O)(=O)NC(=S)Nc2ccc(Cl)cc2)[nH]1: > 100 µM
- CCn1c(=N)sc2nc3ccccc3n2c1=O: > 100 µM
- COc1cc(C2C(C(=O)O)=C(C)Oc3cc4c(cc32)OCO4)cc(OC)c1OC (centres undefined): 18.5 µM
- Cc1ccnc2nc(N)ccc12: > 100 µM
- CC(=O)OCC1OC(Oc2cc(C)c(O)cc2C/C=C(\C)CC/C=C(\C)CC(=O)CC(C)C)C(O)C(OC(C)=O)C1OC(C)=O (centres undefined): 14.3 µM
- CO[C@H]1C[C@H](O[C@H]2CC[C@]3(C=O)[C@H]4CC[C@]5(C)[C@@H](C6=CC(=O)OC6)CC[C@]5(O)[C@@H]4CC[C@]3(O)C2)O[C@H](C)[C@H]1O[C@@H]1O[C@H](CO)[C@@H](O)[C@H](O)[C@H]1O: 3.94e-05 µM

Let's switch to this compound now.
Q. Fill in GI50 for record CC12CCC(=O)[C@@]1(C)CCCC2O (some centres undefined)
A. > 100 µM

src = ChEMBL document CHEMBL1201862
